- System: K4 kissing-loop RNA reporter;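 further: bound reporter read as fluorescence of individual clusters on recovered sequencing chips by microscopy, with normalized cluster intensities fitted with a binding model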
- assay procedure: apparent KD of K4 kissing-loop reporter; higher = weaker reporter binding
- assay setup: Eterna round: R107; input ligand: theophylline 20 uM
Kindly return Criterion met if reported apparent KD of K4 kissing-loop reporter is no lower than 400 nM; return Criterion not met if it is lower.

**Query** Identify whether the reported apparent KD of K4 kissing-loop reporter of the following sequence is 400 nM or greater: UGGAUAUAGUGAUGUUAUAUAGAGAUGGAUACCAGCUAAGAGAAUAGCCCUUGGCAGCCGAAAGAAGUAUCAUUAGAGAAGAAUG [ExTheophyl.Ae]
**Result** Criterion not met

**Query** Identify whether the reported apparent KD of K4 kissing-loop reporter of the following sequence is 400 nM or greater: "GCCGUACGCAUGGAUACCAGAGAUGUUAAUCUCGAUGCCAGUGAUGUUGGCUUUAGCAUACUCCCUUGGCAGCCAUGCGUACGGC"
**Result** Criterion not met

**Query** Identify whether the reported apparent KD of K4 kissing-loop reporter of the following sequence is 400 nM or greater: UACGCCACAGACGUGGAGUACCUUGGGUCGAAGGAUAUCAGCAUUGUGAGAAGGUCGCCGAUUCUAAGUGAUGUUUAGAUCAGGG [theeternabot_sameState_KL_FMN_A_2]
**Result** Criterion met

**Query** Identify whether the reported apparent KD of K4 kissing-loop reporter of the following sequence is 400 nM or greater: CCAUUCUGUUACGAUACCAGUCUAAUAUAUUUGAUCAAUACCCUCGCCGAGUGAUGUUCGGACCCUUGGCAGCGUCUGGGACAGG [bbybmullin]
**Result** Criterion met

**Query** Identify whether the reported apparent KD of K4 kissing-loop reporter of the following sequence is 400 nM or greater: UAUUAAUUGUCAGGAUAUCGUAAACGAGUGAUGUUCGUAUAUCGACGAUAGUCGAUUCUAUCUAAACGAGAAGGGACAUUAUUUA [JR_SSFMNB_Sub008]
**Result** Criterion met

**Query** Identify whether the reported apparent KD of K4 kissing-loop reporter of the following sequence is 400 nM or greater: CGUUUAUAGCAGGAUACCAGUACCCAUAAAGUACGUUAAUAGUAGAGUGAUGUUCUAAAGUACCCUUGGCAGCUUAGAGUGAGUG [ExTheophylB.Q]
**Result** Criterion not met
